// reported pKd for each item listed
Molecular target: T1, huMICA*002 alpha 3-his (human)
T1 construct: whole construct entry: GS, alpha 3 domain, GNS, His8; also called MICA002.His; MICA*002 alpha3 construct
T1 chain: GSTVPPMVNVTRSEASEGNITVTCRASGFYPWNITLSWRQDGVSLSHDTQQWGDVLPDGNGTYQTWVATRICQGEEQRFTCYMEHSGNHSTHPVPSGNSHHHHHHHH
Assay: SPR, Biacore 8K, antibody on Protein A chip
Hey, just a heads up that pKd is the negative log base 10 of the concentration in molar.

binder: 1D5v4 (antibody, IgG1, V domains shown, humanized variant of 1D5) VH: EVQLVQSGAEVKKPGASVKVSCKASGYAFTSQNIYWVRQAPGQGLEWIGYIEPYNVVPMYNPKFKGRVTITRDTSTSTAYLELSSLRSEDTAVYYCARSGSSNFDYWGQGTLVTVSS VL: EIVLTQSPDFQSVTPKEKVTITCSASSSISSHYLHWYQQKPDQSPKLLIYRTSNLASGVPSRFSGSGSGTDYTLTINSLEAEDAATYYCQQGSSLPLTFGQGTKVEIK
quantity kind: pKd
reported value: 8.18

binder: 1D5v17 (antibody, IgG1, V domains shown, humanized variant of 1D5) VH: EIQLVQSGAEVKKPGASVKVSCKASGYAFTSQNIYWVRQAPGQGLEWIGYIEPYNVVPMYNPKFKGRATLTVDKSTSTAYLELSSLRSEDTAVYYCARSGSSNFDYWGQGTLVTVSS VL: DIQMTQSPSSLSASVGDRVTITCSASSSISSHYLHWYQQKPGKSPKLLIYRTSNLASGVPSRFSGSGSGTDYTLTISSLQPEDFATYYCQQGSSLPLTFGQGTKVEIK
quantity kind: pKd
reported value: 9.04

binder: 1D5 (antibody, V domains shown, mouse variable domains; also called anti-MIC 1D5) VH: EIQLQQSGPELVKPGASVKVSCKASGYAFTSQNIYWVKQSHGKSLEWIGYIEPYNVVPMYNPKFKGKATLTVDKSSSSAYIHLNSLTSEDSAIYYCARSGSSNFDYWGQGTTLTVSS VL: EIILTQSPTTMAASPGEKITITCSASSSISSHYLHWYQQKSGFSPKLLIYRTSNLASGVPARFSGSGSGTSYSLTIGTMEAEDVATYYCQQGSSLPLTFGAGTKVEIK
quantity kind: pKd
reported value: 9.08

binder: 6E1.1.12 (antibody, V domains shown, mouse variable domains) VH: QGQMQQSGAELVKPGASVKLSCKTSGFTFSDNYISWLKQKPGQSLEWIAWIYAGTGGSSYNQKFRDKAQLTVDTSSRTAYMQLSSLTTEDSAIYYCARHDYYGTSGAWFAYWGRGTLVTVSA VL: DVLMTQTPLSLPVSLGDQASISCRSSQHIVHSNENTYLEWYLQKPGQSPKLLIYKVSNRFSGVPDRFSGSGSGTDFTLKISRVEAEDLGVYYCFQGSHVPWTFGGGTKVEIK
quantity kind: pKd
reported value: 8.83

Note: attention shifts to another entry.
Challenge: Reported pKd for 13A9v3 (antibody, IgG1, V domains shown, humanized variant of 13A9) VH: EVQLVQSGAEVKKPGASVKVSCKASGYAFTNYLIEWVRQAPGQGLEWIGAINPGSGATNYNEKFKDRVTITADTSTSTAYLELSSLRSEDTAVYYCARFLGNYFDNWGQGTLVTVSS VL: DIQMTQSPSSLSASVGDRVTITCRASGNIHSYLAWYQQKPGKSPKLLVYYAETLADGVPSRFSGSGSGTDYTLTISSLQPEDFATYFCQQFWTTPYTFGQGTKVEIK : what is it?
Response given: 8.30
